# credit: patent US11117931B2

Tested on: erythrocytes of a mouse (Balb/c)
experimentDescription: Hemolytic activity
Assay type: cell-based
conditionDetails: peptide concentration 50 μM
Where no end group is shown, it is not given here.
Measured Erythrocyte disrupting ability, listed per entry for reference.
Kindly answer with a numeric value in %, unit omitted.

Below: 5 substances and their reported Erythrocyte disrupting ability.
> print(dat)
                       substance  displayunit  recordedvalue
1    GILGKLWEGVKSIF-NH2 [Hp1404]            %          55.41
2   ILGKLWEGVKSI-NH2 [Hp1404-T1]            %              0
3  ILKKLWEGVKSI-NH2 [Hp1404-T1a]            %              0
4  ILKKLLEGVKSI-NH2 [Hp1404-T1b]            %              0
5  ILKKLLKKVKSI-NH2 [Hp1404-T1d]            %              0

Erythrocyte disrupting ability value, target or system erythrocytes of a mouse (Balb/c), for ILKKLLKKVKKI-NH2 [Hp1404-T1e] : 0

Erythrocyte disrupting ability value, target or system erythrocytes of a mouse (Balb/c), for ILKKLLKGVKSI-NH2 [Hp1404-T1c] : 0

---

experimentDescription: Stability against trypsin enzyme (RP-HPLC)
Type: in vitro ADME
conditionDetails: 20 nM trypsin, 37° C., reaction for 1 hour; read-out: amount of remaining peptide
Where no end group is shown, it is not given here.
Measured remaining at 1 h, 200 μg/mL, listed per entry for reference.

Below: 3 substances and their reported remaining at 1 h, 200 μg/mL.
> print(dat)
                       substance  recordedvalue
1  ILKKLLKKVKKI-NH2 [Hp1404-T1e]          ≥ 80%
2  ILKKLLKKVKSI-NH2 [Hp1404-T1d]          ≥ 80%
3    GILGKLWEGVKSIF-NH2 [Hp1404]            60%

Lab note: ILKKLLKGVKSI-NH2 [Hp1404-T1c] gave remaining at 1 h, 200 μg/mL of ≥ 80%

---

experimentDescription: Cytotoxicity in normal cell line (MTT)
Assay type: cell-based
conditionDetails: human, HaCaT keratinocytes, peptide concentration 100 μM; read-out: Cell survival ability
Where no end group is shown, it is not given here.
testReadout: viability at 24 h, 100 µM
Please format your answer as a value with the unit trailing.

Below: 6 substances and their reported viability at 24 h, 100 µM.
> print(dat)
                       substance  recordedvalue
1  ILKKLLEGVKSI-NH2 [Hp1404-T1b]          80.9%
2   ILGKLWEGVKSI-NH2 [Hp1404-T1]           100%
3    GILGKLWEGVKSIF-NH2 [Hp1404]          0.11%
4  ILKKLLKGVKSI-NH2 [Hp1404-T1c]          48.6%
5  ILKKLWEGVKSI-NH2 [Hp1404-T1a]           100%
6  ILKKLLKKVKSI-NH2 [Hp1404-T1d]          34.6%

Lab note: ILKKLLKKVKKI-NH2 [Hp1404-T1e] gave viability at 24 h, 100 µM of 100%

---

Measured remaining at 2 h, 200 μg/mL, listed per entry for reference.
experimentDescription: Stability against trypsin enzyme (RP-HPLC)
Assay type: in vitro ADME
conditionDetails: 20 nM trypsin, 37° C., reaction for 2 hours; read-out: amount of remaining peptide
Where no end group is shown, it is not given here.
Kindly answer with a numeric value in %, unit omitted.

Below: 3 substances and their reported remaining at 2 h, 200 μg/mL.
> print(dat)
                       substance  recordedvalue
1  ILKKLLKKVKSI-NH2 [Hp1404-T1d]             80
2  ILKKLLKKVKKI-NH2 [Hp1404-T1e]             80
3    GILGKLWEGVKSIF-NH2 [Hp1404]             45

Lab note: ILKKLLKGVKSI-NH2 [Hp1404-T1c] gave remaining at 2 h, 200 μg/mL of 80

---

Measured Erythrocyte disrupting ability, listed per entry for reference.
Test system: erythrocytes of a mouse (Balb/c)
experimentDescription: Hemolytic activity
Assay type: cell-based
conditionDetails: peptide concentration 25 μM
Where no end group is shown, it is not given here.
Kindly answer with a numeric value in %, unit omitted.

Below: 5 substances and their reported Erythrocyte disrupting ability.
> print(dat)
                       substance  recordedvalue
1  ILKKLLEGVKSI-NH2 [Hp1404-T1b]              0
2  ILKKLLKKVKSI-NH2 [Hp1404-T1d]              0
3  ILKKLLKKVKKI-NH2 [Hp1404-T1e]           0.41
4   ILGKLWEGVKSI-NH2 [Hp1404-T1]              0
5    GILGKLWEGVKSIF-NH2 [Hp1404]          11.01

Lab note: ILKKLLKGVKSI-NH2 [Hp1404-T1c] gave Erythrocyte disrupting ability of 0

Lab note: ILKKLWEGVKSI-NH2 [Hp1404-T1a] gave Erythrocyte disrupting ability of 0
